Please go through the items and note down their OD450.
TARGET_UNDER_TEST: T1, human MSLN-FL-his protein (human, UniProt Q13421 296-580)
T1 construct: also called hMSLN-FL-his; human MSLN full-length protein; not shown: His tag
METHOD_SUMMARY: ELISA, coated antigen; antibody 100 nM

*Q* Endpoint output: OD450 of S009-F1.25.10 human-murine chimeric antibody (antibody, human IgG1, kappa, V domains shown, Chimeric IgG1/kappa) VH: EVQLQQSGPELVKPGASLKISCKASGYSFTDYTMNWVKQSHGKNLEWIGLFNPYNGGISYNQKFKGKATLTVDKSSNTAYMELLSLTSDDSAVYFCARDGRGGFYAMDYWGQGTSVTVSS VL: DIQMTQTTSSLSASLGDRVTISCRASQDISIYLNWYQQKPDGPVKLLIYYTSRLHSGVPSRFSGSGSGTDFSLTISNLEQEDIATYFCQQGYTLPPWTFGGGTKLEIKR . Value?
*A* 2.57

*Q* Follow-up item: S009-F1.56.1 human-murine chimeric antibody (antibody, human IgG1, kappa, V domains shown, Chimeric IgG1/kappa) VH: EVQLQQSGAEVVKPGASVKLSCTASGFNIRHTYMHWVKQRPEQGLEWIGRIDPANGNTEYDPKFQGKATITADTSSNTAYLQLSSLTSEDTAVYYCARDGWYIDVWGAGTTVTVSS VL: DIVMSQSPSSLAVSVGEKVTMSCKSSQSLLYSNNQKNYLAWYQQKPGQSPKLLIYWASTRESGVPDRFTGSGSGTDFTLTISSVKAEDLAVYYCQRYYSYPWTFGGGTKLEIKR
*A* 2.74

*Q* S009-F1.62.9 human-murine chimeric antibody (antibody, human IgG1, kappa, V domains shown, Chimeric IgG1/kappa) VH: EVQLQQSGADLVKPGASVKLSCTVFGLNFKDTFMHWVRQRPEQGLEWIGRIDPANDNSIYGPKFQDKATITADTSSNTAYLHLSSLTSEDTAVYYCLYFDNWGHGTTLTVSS VL: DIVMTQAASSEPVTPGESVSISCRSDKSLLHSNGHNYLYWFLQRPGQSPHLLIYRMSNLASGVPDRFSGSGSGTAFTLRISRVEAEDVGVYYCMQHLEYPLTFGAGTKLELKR ?
*A* 2.61

*Q* Item: S009-F1.59.1 human-murine chimeric antibody (antibody, human IgG1, kappa, V domains shown, Chimeric IgG1/kappa) VH: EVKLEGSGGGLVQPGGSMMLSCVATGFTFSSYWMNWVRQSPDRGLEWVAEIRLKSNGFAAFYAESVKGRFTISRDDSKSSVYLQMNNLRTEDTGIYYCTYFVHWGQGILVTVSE VL: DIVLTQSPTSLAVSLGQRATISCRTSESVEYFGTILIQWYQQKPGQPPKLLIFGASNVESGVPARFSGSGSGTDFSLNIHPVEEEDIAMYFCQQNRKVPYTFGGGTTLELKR
*A* 2.65

*Q* S009-F1.57.1 human-murine chimeric antibody (antibody, human IgG1, kappa, V domains shown, Chimeric IgG1/kappa) VH: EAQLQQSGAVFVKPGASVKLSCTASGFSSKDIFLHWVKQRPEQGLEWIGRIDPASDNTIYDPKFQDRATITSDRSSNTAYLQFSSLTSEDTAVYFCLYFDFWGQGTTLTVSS VL: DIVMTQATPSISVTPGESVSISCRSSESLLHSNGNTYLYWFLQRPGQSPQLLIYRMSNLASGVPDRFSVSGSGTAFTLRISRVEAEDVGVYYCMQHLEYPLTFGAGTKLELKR , same question.
*A* 2.51

*Q* Next: S009-F1.35.24 human-murine chimeric antibody (antibody, human IgG1, kappa, V domains shown, Chimeric IgG1/kappa) VH: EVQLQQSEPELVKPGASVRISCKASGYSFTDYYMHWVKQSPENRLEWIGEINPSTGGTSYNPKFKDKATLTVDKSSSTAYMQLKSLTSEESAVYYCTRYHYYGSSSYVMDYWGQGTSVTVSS VL: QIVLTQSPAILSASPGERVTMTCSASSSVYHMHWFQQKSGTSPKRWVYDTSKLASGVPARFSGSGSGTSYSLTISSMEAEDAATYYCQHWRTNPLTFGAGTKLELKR
*A* 2.48

*Q* Follow-up item: S009-F1.2.12 human-murine chimeric antibody (antibody, human IgG1, kappa, V domains shown, Chimeric IgG1/kappa) VH: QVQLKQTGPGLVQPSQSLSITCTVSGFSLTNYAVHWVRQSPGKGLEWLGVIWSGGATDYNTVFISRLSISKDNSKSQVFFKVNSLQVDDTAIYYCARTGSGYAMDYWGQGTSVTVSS VL: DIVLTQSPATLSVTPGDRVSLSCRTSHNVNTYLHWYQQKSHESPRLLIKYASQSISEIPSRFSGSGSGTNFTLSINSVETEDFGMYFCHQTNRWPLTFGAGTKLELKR
*A* 2.74
